- ASSAY REMARKS: folding enthalpy; higher = less favourable; fluorescence melt of hairpins on a sequencing array, two-state fit
- CONDITIONS: sodium 0.088 M
Each record's class is read off its folding enthalpy using these ranges: bin 1 (below -30 kcal/mol), bin 2 (-30 kcal/mol to below -20 kcal/mol), bin 3 (-20 kcal/mol or more)

ORDERED RESIDUES: GCGCCCGAAAGGGCACGC ((((((....)))..)))
CLASS: bin 3

ORDERED RESIDUES: GCCAGGCGAAAGCACGGC (((..((....))..)))
CLASS: bin 3

ORDERED RESIDUES: CAAGAGAAATCTTG (((((....)))))
CLASS: bin 3

ORDERED RESIDUES: GCTTGGACGAAAGTCAGC (((..(((....))))))
CLASS: bin 3

ORDERED RESIDUES: GCCCTGCGAAAGCGGAGC ((.(.((....)).).))
CLASS: bin 3

ORDERED RESIDUES: GCATGCGGAAACGCGTGC (((.(((....))).)))
CLASS: bin 1

ORDERED RESIDUES: GGCAAACGAAAGTTAGCC (((.(((....))).)))
CLASS: bin 2

ORDERED RESIDUES: GAAGACCGAAAGGTTTTC (((.(((....))).)))
CLASS: bin 2

ORDERED RESIDUES: GCTTGCGAAAGCATGAGC ((((((....)))..)))
CLASS: bin 2

ORDERED RESIDUES: GGTCGAGGAAACTTGACC ((((.((....)).))))
CLASS: bin 1

ORDERED RESIDUES: GATTGCGGAAACGCAACC (.(((((....))))).)
CLASS: bin 3

ORDERED RESIDUES: GGGAACCGAAAGGTGCCC (((.(((....))).)))
CLASS: bin 1

ORDERED RESIDUES: GCACGGCGAAAGCCTAGC ((..(((....)))..))
CLASS: bin 3

ORDERED RESIDUES: GATCGTCATCACGATC ((((((....))))))
CLASS: bin 1

ORDERED RESIDUES: GTCTTAGCGAAAGCTGAC (((..(((....))))))
CLASS: bin 3

ORDERED RESIDUES: GATCCTCACAGGATC ((((((...))))))
CLASS: bin 2

ORDERED RESIDUES: GAAAAGCGAAAGCTGTTC (((.(((....))).)))
CLASS: bin 3

// provenance: the array DNA melting data of Ke et al. (doi:10.1101/2024.01.08.574731)
